Examples of molecules with documented pIC50 follow.
# Tested on: JAK1-dependent STAT6 phosphorylation downstream of IL-13 stimulation in TF-1 human erythroleukemia cells
# MEASUREMENT_NOTES: cells
# CONDITION_NOTES: TF-1, read-out: IL-13-pSTAT6 IC50
pIC50 field: float, defined as -log10 of concentration (mol/L).

Below, 2 molecules whose answers are already recorded.
[
  {
    "MOLECULE": "O=C(NCCN1CCCCC1)c1ccc(Nc2nc3c(C4=CCN(C(=O)CCC(F)(F)F)CC4)cccn3n2)cc1",
    "pIC50": 8.26
  },
  {
    "MOLECULE": "O=C(CCC(F)(F)F)N1CC=C(c2cccn3nc(Nc4ccc(C(=O)N5CCCC5c5ccncc5)cc4)nc23)CC1 (stereo not drawn)",
    "pIC50": 8.26
  }
]

Next molecule, please.
Query: What pIC50 value was documented for this molecule, CN1CCC(N(C)C(=O)c2ccc(Nc3nc4c(C5=CCN(S(=O)(=O)N6CC(C)(C)C6)CC5)cccn4n3)cc2)CC1 ?
Response: 6.62

====

# System: JAK1-dependent STAT6 phosphorylation downstream of IL-13 stimulation in TF-1 human erythroleukemia cells
# MEASUREMENT_NOTES: cells
# CONDITION_NOTES: TF-1, read-out: IL-13-pSTAT6 IC50
pIC50: −log10 of the molar value.
Label Criterion met when pIC50 >= 7; otherwise Criterion not met.

[
  {
    "COMPOUND": "CN1CCCC2(CCCN(C(=O)c3ccc(Nc4nc5c(C6=CCN(C(=O)CCC(F)(F)F)CC6)cccn5n4)cc3)C2)C1 (stereo not shown) [Example 2-93]",
    "ASSIGNED_LABEL": "Criterion met"
  }
]

Query: Can CCOC(=O)N1CC=C(c2cccn3nc(Nc4ccc(C(=O)N5CC6(CN(C(C)=O)C6)C5)cc4)nc23)CC1 [Example 2-432] be said to have pIC50 at or above 7?
Response: Criterion met

Query: Does the reported pIC50 for CCOC(=O)N1CC=C(c2cccn3nc(Nc4ccc(C(=O)N5CC(C(=O)N6CCN(C)CC6)C5)cc4)nc23)CC1 [Example 2-421] fall at or above the 7 mark?
Response: Criterion met

Query: Has CN1CCC(N(C)C(=O)c2ccc(Nc3nc4c(N5CCC(O)(c6ccc(Cl)cc6)CC5)cccn4n3)cc2)CC1 [Example 1-17] a recorded pIC50 greater than or equal to 7?
Response: Criterion met

Query: Please check the record CCOC(=O)N1CC=C(c2cccn3nc(Nc4ccc(C(=O)NCCCN5CCOCC5)cc4)nc23)CC1 [Example 2-56] and state if its pIC50 is at or above 7.
Response: Criterion met

Query: Test whether the compound O=C(NC1CCNC1)c1ccc(Nc2nc3c(C4=CCN(C(=O)CCC(F)(F)F)CC4)cccn3n2)cc1 (stereo not shown) [Example 2-255] records pIC50 of 7 or higher.
Response: Criterion not met

Query: Identify whether the reported pIC50 of the following compound is 7 or greater: O=C(c1ccc(Nc2nc3c(N4CCC(O)(c5ccc(Cl)cc5)CC4)cccn3n2)cc1)N1CCNCC1 [Example 1-177]
Response: Criterion met

Query: Item O=C(NCC1CCCCN1)c1ccc(Nc2nc3c(C4=CCN(C(=O)CCC(F)(F)F)CC4)cccn3n2)cc1 (stereo not shown) [Example 2-385] with pIC50 of 7 or above?
Response: Criterion not met

Query: Would you say CN1CCCCC1CNC(=O)c1ccc(Nc2nc3c(N4CCC(O)(c5ccc(Cl)cc5)CC4)cccn3n2)cc1 (stereo not shown) [Example 1-103] shows pIC50 at minimum 7?
Response: Criterion met

Query: Given O=C(CCC(F)(F)F)N1CC=C(c2cccn3nc(Nc4ccc(C(=O)N5CCO[C@@H]6CNC[C@@H]65)cc4)nc23)CC1 [Example 2-139] , state whether its pIC50 is at least 7.
Response: Criterion not met

Query: Evaluate CC1CN(C(=O)c2ccc(Nc3nc4c(C5=CCN(C(=O)CCC(F)(F)F)CC5)cccn4n3)cc2)CCN1 (stereo not shown) [Example 2-196] : pIC50 at minimum 7?
Response: Criterion met

Query: Would you say CN1CCN(C2CCN(C(=O)c3ccc(Nc4nc5c(C6=CCN(C(=O)CCC(F)(F)F)CC6)cccn5n4)cc3)CC2)CC1 [Example 2-393] shows pIC50 at minimum 7?
Response: Criterion met

Query: Entry CC1CC1C(=O)N1CC=C(c2cccn3nc(Nc4ccc(C(=O)N(C)C5CCN(C)CC5)cc4)nc23)CC1 (stereo not shown) [Example 2-223] : is its pIC50 no less than 7?
Response: Criterion met

Query: Has COCCOc1cc(COC2CCN(c3cccn4nc(Nc5ccc(C(=O)N(C)C6CCN(C)CC6)cc5)nc34)CC2)ccn1 [Example 1-44] a recorded pIC50 greater than or equal to 7?
Response: Criterion not met

====

# MEASUREMENT_TARGET: isolated recombinant JAK2 kinase domain (Homo sapiens (Human))
# Sequence (O60674 849-1124): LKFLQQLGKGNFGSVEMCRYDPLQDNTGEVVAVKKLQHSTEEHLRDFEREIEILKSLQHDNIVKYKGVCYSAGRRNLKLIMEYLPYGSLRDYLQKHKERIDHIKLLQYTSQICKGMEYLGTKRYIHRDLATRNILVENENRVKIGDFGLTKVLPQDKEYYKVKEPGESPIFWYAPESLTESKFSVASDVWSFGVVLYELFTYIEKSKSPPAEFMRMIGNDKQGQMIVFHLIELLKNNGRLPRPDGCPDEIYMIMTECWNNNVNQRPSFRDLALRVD
# CONDITION_NOTES: read-out: JAK2 Ki; isolated recombinant JAK2 kinase domain, 25 μM ATP
MEASURE: pKi
# pKi: negative log10 of molar concentration; output just the value

// worked examples, pKi included
[
  {
    "MOLECULE": "CN1CCC(N(C)C(=O)c2ccc(Nc3nc4c(N5CCc6ccccc6C5)cccn4n3)cc2)CC1",
    "MEASUREMENT_TARGET": "isolated recombinant JAK2 kinase domain (Homo sapiens (Human))",
    "pKi": 7.99
  },
  {
    "MOLECULE": "CNC(=O)C1CN(C(=O)c2ccc(Nc3nc4c(N5CCC(O)(c6ccc(Cl)cc6)CC5)cccn4n3)cc2)CCN1Cc1ccccc1 (centres unmarked)",
    "MEASUREMENT_TARGET": "isolated recombinant JAK2 kinase domain (Homo sapiens (Human))",
    "pKi": 8.94
  },
  {
    "MOLECULE": "CN1CCC(N(C)C(=O)c2ccc(Nc3nc4c(N5CCC(C(=O)O)(c6ccc(Cl)cc6)CC5)cccn4n3)cc2)CC1",
    "MEASUREMENT_TARGET": "isolated recombinant JAK2 kinase domain (Homo sapiens (Human))",
    "pKi": 7.88
  },
  {
    "MOLECULE": "CN1CCC(CCNC(=O)c2ccc(Nc3nc4c(N5CCC(O)(c6ccc(Cl)cc6)CC5)cccn4n3)cc2)CC1",
    "MEASUREMENT_TARGET": "isolated recombinant JAK2 kinase domain (Homo sapiens (Human))",
    "pKi": 9.19
  }
]

Next molecule, pKi to be filled in.
Query: Need pKi of CN1CCC(N(C)C(=O)c2ccc(Nc3nc4c(N5CCC(CC(=O)N(C)C)(c6ccc(Cl)cc6)CC5)cccn4n3)cc2)CC1 , thanks.
Response: 9.26

====

# Test system: JAK1-dependent STAT6 phosphorylation downstream of IL-13 stimulation in TF-1 human erythroleukemia cells
# MEASUREMENT_NOTES: cells
# CONDITION_NOTES: TF-1, read-out: IL-13-pSTAT6 IC50
Each entry below carries its reported IC50.
Report the value in nM with no unit label.

Take a look at these entries with their results.
[
  {
    "COMPOUND": "CN(Cc1cccnc1)C(=O)c1ccc(Nc2nc3c(C4=CCN(C(=O)CCC(F)(F)F)CC4)cccn3n2)cc1",
    "VALUE_UNITS": "nM",
    "VAL": 5.6
  },
  {
    "COMPOUND": "O=C(CCC(F)(F)F)N1CC=C(c2cccn3nc(Nc4ccc(C(=O)N5CCOC6(CCNCC6)C5)cc4)nc23)CC1",
    "VALUE_UNITS": "nM",
    "VAL": 588
  },
  {
    "COMPOUND": "O=C(CCC(F)(F)F)N1CC=C(c2cccn3nc(Nc4ccc(C(=O)N5CCC(Cc6ccccn6)C5)cc4)nc23)CC1 (stereo not shown)",
    "VALUE_UNITS": "nM",
    "VAL": 6.4
  }
]

Let's switch to this compound now.
Query: Sample CN1CC2CN(C(=O)c3ccc(Nc4nc5c(C6=CCN(C(=O)CCC(F)(F)F)CC6)cccn5n4)cc3)CC(C1)O2 — what was its IC50?
Response: 10

====

Let's look at some compounds and their measured pIC50.
# Test system: JAK1-dependent STAT6 phosphorylation downstream of IL-13 stimulation in TF-1 human erythroleukemia cells
# MEASUREMENT_NOTES: cells
# CONDITION_NOTES: TF-1, read-out: IL-13-pSTAT6 IC50
Where a name gives a salt, the structure may show the parent alone.
The quantity pIC50 is defined as the negative base-10 logarithm of the molar concentration.

Here's what some known entries look like.
[
  {
    "COMPOUND": "O=C(NCCN1CCC(O)CC1)c1ccc(Nc2nc3c(C4=CCN(C(=O)CCC(F)(F)F)CC4)cccn3n2)cc1",
    "pIC50": 7.07
  },
  {
    "COMPOUND": "O=C(CCC(F)(F)F)N1CC=C(c2cccn3nc(Nc4ccc(C(=O)N5CCC(c6ccncc6)CC5)cc4)nc23)CC1",
    "pIC50": 8.12
  },
  {
    "COMPOUND": "CN1CCC2(CC1)CN(C(=O)c1ccc(Nc3nc4c(C5=CCN(C(=O)CCC(F)(F)F)CC5)cccn4n3)cc1)C2",
    "pIC50": 8.24
  },
  {
    "COMPOUND": "Cc1ccc(C2CCCN2C(=O)c2ccc(Nc3nc4c(C5=CCN(C(=O)CCC(F)(F)F)CC5)cccn4n3)cc2)nc1 (stereo not drawn)",
    "pIC50": 8.10
  },
  {
    "COMPOUND": "O=C(CCC(F)(F)F)N1CC=C(c2cccn3nc(Nc4ccc(C(=O)N5CCCNCC5)cc4)nc23)CC1",
    "pIC50": 6.79
  },
  {
    "COMPOUND": "CN1CCC(C2CCCCN2C(=O)c2ccc(Nc3nc4c(C5=CCN(C(=O)CCC(F)(F)F)CC5)cccn4n3)cc2)CC1 (stereo not drawn)",
    "pIC50": 7.97
  },
  {
    "COMPOUND": "CN1CCC(N(C)C(=O)c2ccc(Nc3nc4c(C5=CCN(Cc6ccccc6)CC5)cccn4n3)cc2)CC1 [Example 2-8, hydrochloride]",
    "pIC50": 6.07
  },
  {
    "COMPOUND": "O=C(CCC(F)(F)F)N1CC=C(c2cccn3nc(Nc4ccc(C(=O)N5CC6CNCC(C5)O6)cc4)nc23)CC1",
    "pIC50": 7.07
  }
]

Now let's try a different one.
Query: What does the data say about its pIC50? Entry: O=C(c1ccc(Nc2nc3c(N4CCC(CO)(c5ccc(Cl)cc5)CC4)cccn3n2)cc1)N1CCCC1c1ccncc1 (stereo not drawn)
Response: 7.55
